assayed.target: UniProt P11712
Sequence (P11712 whole entry): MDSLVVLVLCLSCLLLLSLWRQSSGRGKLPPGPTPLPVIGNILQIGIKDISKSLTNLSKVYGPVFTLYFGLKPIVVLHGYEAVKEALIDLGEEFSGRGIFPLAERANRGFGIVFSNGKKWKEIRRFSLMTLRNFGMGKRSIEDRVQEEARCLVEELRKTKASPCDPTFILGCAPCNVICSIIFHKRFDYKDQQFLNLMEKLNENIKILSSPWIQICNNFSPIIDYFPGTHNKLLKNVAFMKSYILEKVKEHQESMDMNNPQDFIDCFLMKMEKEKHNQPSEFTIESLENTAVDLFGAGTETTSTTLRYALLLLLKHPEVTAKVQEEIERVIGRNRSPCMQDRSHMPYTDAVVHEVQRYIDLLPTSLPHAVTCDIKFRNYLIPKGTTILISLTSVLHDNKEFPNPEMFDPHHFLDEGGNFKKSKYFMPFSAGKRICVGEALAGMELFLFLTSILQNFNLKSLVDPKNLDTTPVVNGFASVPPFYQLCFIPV

- input.smiles: "O=C(O)Cc1ccc2oc(-c3ccc(NC(=O)/C=C/c4ccc(Br)cc4)c(F)c3)nc2c1"
  assayed.target: "UniProt P11712"
  IC50: "> 30 µM"

The values you see were collected from ChEMBL document CHEMBL1144380.
